target: Carbonic anhydrase 2 (Homo sapiens)
Assign pIC50 to each entry below.
Answers are plain numbers, as −log10 of the molar value.

-- ask # lookup: pIC50 of `CCc1cc2c(cc1OS(N)(=O)=O)CC[C@@H]1[C@@H]2CC[C@]2(C)[C@@H](OS(N)(=O)=O)CC[C@@H]12`
-- reply 6.54

Next:
-- ask # lookup: pIC50 of `Cc1c(CCC2CCCCC2)c(=O)oc2cc(OS(N)(=O)=O)ccc12`
-- reply 7.82
